Where these numbers come from: patent US8536332B2

Measured melting point, listed per entry.

Answered examples (2):
Q: Need melting point, item CCNC(=O)Nc1ccc2ncc(-c3cccc(OCC)c3)nc2n1 [Compound 130]
A: 220 to 223 °C

Q: Same for COc1cc(-c2ccc3ncc(NC(=O)NC4CCCC4)nc3n2)ccc1O [Compound 20]
A: 222 to 225 °C

Consider now this further compound.
Q: Consider the compound CCNC(=O)Nc1ccc2ncc(Nc3ccc4c(c3)OC(F)(F)O4)nc2n1 [Compound 42] and give its measured melting point.
A: 238 to 241 °C

---

Observation Type: melting point

Here's what some known entries look like.
Q: # get_value(readout='melting point', item= CCNC(=O)Nc1ccc2ncc(Nc3ccc(Cl)c(C(=O)O)c3)nc2n1 )
A: 324 to 329 °C

Q: Also Cc1noc(C)c1NC(=O)Nc1cnc2ccc(-c3cc(Cl)c(O)c(Cl)c3)nc2n1 , if possible.
A: 257 to 260 °C

Q: Consider next the molecule CCNC(=O)Nc1ccc2ncc(Nc3cc(C(C)(C)C)ccc3O)nc2n1 in the same way.
A: 255 °C

Q: Subsequent entry: CCNC(=O)Nc1ccc2ncc(Nc3ccccc3O)nc2n1
A: 243 to 246 °C

Q: Another: CCNC(=O)Nc1cnc2ccc(-c3cc(C)c(OC)c(C)c3)nc2n1
A: 240 to 241 °C

Q: Subsequent entry: COc1cc(-c2ccc3ncc(NC(=O)Nc4ccc(F)cc4)nc3n2)ccc1O
A: 244 to 246 °C

Q: Please do the same for CCNC(=O)Nc1cnc2ccc(-c3cc(C)c(O)c(C)c3)nc2n1 as well.
A: > 240 °C

Q: What about C=CCNC(=O)Nc1cnc2ccc(-c3ccc(OC)c(OC)c3)nc2n1 ?
A: 236 to 238 °C

Field: next molecule
Q: Look at this molecule and give its reported melting point. CCNC(=O)Nc1ccc2ncc(-c3cncn3C)nc2n1
A: 257 to 259 °C
